Below is a list of entries, each paired with its recorded residual activity value.
Test system: Isocitrate dehydrogenase [NADP] cytoplasmic (Homo sapiens), O75874 [R132C]
Sequence (O75874 whole entry R132C): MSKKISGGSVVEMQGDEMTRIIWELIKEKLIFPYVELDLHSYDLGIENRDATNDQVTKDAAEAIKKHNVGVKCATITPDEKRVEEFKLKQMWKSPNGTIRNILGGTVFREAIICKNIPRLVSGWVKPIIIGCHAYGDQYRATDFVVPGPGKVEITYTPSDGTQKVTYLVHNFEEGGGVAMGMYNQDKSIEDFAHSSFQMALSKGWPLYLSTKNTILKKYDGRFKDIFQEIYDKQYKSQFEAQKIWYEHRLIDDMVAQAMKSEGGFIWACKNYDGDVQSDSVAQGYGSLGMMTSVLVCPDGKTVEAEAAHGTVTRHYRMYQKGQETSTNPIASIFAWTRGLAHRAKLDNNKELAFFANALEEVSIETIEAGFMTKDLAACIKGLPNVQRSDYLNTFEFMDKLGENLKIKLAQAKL
experiment_summary: Inhibition of IDH1 R132C mutant (unknown origin) expressed in HEK293T cells assessed as reduction in D-2-HG levels at 10 uM after 72 hrs relative to control; values are per cent of control
Write down the numeric answer in % and omit the unit.

| structure_smiles_string | outcome_measure | value_observed |
| --- | --- | --- |
| CC(C)[C@H]1COC(=O)N1c1cncc(N[C@@H](C)c2ccc(-c3cccc(F)c3)cc2)n1 | residual activity | 116 |
| Cc1ccccc1-c1ccc([C@H](C)Nc2cncc(N3C(=O)OC[C@@H]3C(C)C)n2)cc1 | residual activity | 44.6 |
| Cc1ccc(-c2ccc([C@H](C)Nc3cncc(N4C(=O)OC[C@@H]4C(C)C)n3)cc2)cc1 | residual activity | 74.9 |

[in] Endpoint output: residual activity of `Cc1cccc(-c2ccc([C@H](C)Nc3cncc(N4C(=O)OC[C@@H]4C(C)C)n3)cc2)c1` . Value?
[out] 51.1

[in] Field entry: `CC(C)[C@H]1COC(=O)N1c1cncc(N[C@@H](C)c2ccc(-c3ccc(C(F)(F)F)cc3)cc2)n1`
[out] 39.9

---

System: Isocitrate dehydrogenase [NADP] cytoplasmic (Homo sapiens), O75874 [R132H]
Sequence (O75874 whole entry R132H): as the sequence (O75874 whole entry R132C) above, with C132H counted along it
experiment_summary: Inhibition of IDH1 R132H mutant (unknown origin) expressed in HEK293T cells assessed as reduction in D-2-HG levels at 10 uM after 72 hrs relative to control; values are per cent of control
Binary call on residual activity: label 1 from 50% upward, label 0 beneath that.

| structure_smiles_string | measurement_target | group_label |
| --- | --- | --- |
| CC(C)[C@H]1COC(=O)N1c1cncc(N[C@@H](C)c2ccc(-c3ccc4ccccc4c3)cc2)n1 | Isocitrate dehydrogenase [NADP] cytoplasmic (Homo sapiens), O75874 [R132H] | label 1 |
| Cc1ccccc1-c1ccc([C@H](C)Nc2cncc(N3C(=O)OC[C@@H]3C(C)C)n2)cc1 | Isocitrate dehydrogenase [NADP] cytoplasmic (Homo sapiens), O75874 [R132H] | label 0 |

Now for another entry.
[in] Form field: residual activity at least 50%? Entry: `Cc1ccc(-c2ccc([C@H](C)Nc3cncc(N4C(=O)OC[C@@H]4C(C)C)n3)cc2)cc1`
[out] label 1

---

System: Isocitrate dehydrogenase [NADP] cytoplasmic (Homo sapiens), O75874 [R132H]
experiment_summary: Inhibition of IDH1 R132H mutant (unknown origin) expressed in HEK293T cells assessed as reduction in D-2-HG levels at 50 uM after 72 hrs relative to control; values are per cent of control
Below is a list of entries, each paired with its recorded residual activity value.
Write down the numeric answer in % and omit the unit.

[in] Endpoint output: residual activity of `CC(C)[C@H]1COC(=O)N1c1cncc(N[C@@H](C)c2ccc(-c3cccc(F)c3)cc2)n1` . Value?
[out] 34.7

---

System: Isocitrate dehydrogenase [NADP] cytoplasmic (Homo sapiens), O75874 [R132H]
experiment_summary: Inhibition of IDH1 R132H mutant (unknown origin) expressed in HEK293T cells assessed as reduction in D-2-HG levels at 10 uM after 72 hrs relative to control; values are per cent of control
outcome_measure: residual activity

Worked examples follow.
| structure_smiles_string | residual activity |
| --- | --- |
| COc1cccc(-c2ccc([C@H](C)Nc3cncc(N4C(=O)OC[C@@H]4C(C)C)n3)cc2)c1 | 59.8% |
| COc1ccc(-c2ccc([C@H](C)Nc3cncc(N4C(=O)OC[C@@H]4C(C)C)n3)cc2)cc1 | 47.7% |
| CC(C)[C@H]1COC(=O)N1c1cncc(N[C@@H](C)c2ccc(-c3cccc(F)c3)cc2)n1 | 97.2% |
| CC(C)[C@H]1COC(=O)N1c1cncc(N[C@@H](C)c2ccc(-c3ccc(C(F)(F)F)cc3)cc2)n1 | 28% |
| CC(C)[C@H]1COC(=O)N1c1cncc(N[C@@H](C)c2ccc(-c3ccccc3F)cc2)n1 | 78.4% |

Let us move to another entry and its residual activity.
[in] API: value(readout= residual activity, system= Isocitrate dehydrogenase [NADP] cytoplasmic (Homo sapiens), O75874 [R132H], query= `CC(C)[C@H]1COC(=O)N1c1ccnc(N[C@@H](C)c2ccc(-c3ccccn3)cc2)n1` )
[out] 33.9%

This collection of values is drawn from ChEMBL document CHEMBL4177644.
